The origin of these recorded values is the nanobody polyreactivity screen of Harvey et al. (2022).

test_name: yeast display, Sf9 membrane polyspecificity reagent, FACS + sequencing; frameworks hold sequencing errors

{"columns": ["polymer_sequence", "polyreactivity (PSR sort gate)"],
 "data": [
  ["QVQLVESGGGLVQAVVSLRLSCADTGFTFRRYAMGWDRQAPGKERELVAVITTAGSTNYADSVKGRFTISRDNAKNTVYLKMNSLKPEDTAVYYCATDNGTRKRRYDYWGQGTQVTVSS", "low polyreactivity"],
  ["QVQLVESGGGLVQAGGSLRLSCAASGFTFAVFARGWYRQAPGKERELVAAISRTGTRTYYADSVKGRFTISRDNAKNTVYLQMNSLKPEDTAVYYWAADKYRHGYDYWGQGTQVTVSS", "low polyreactivity"],
  ["QVQLVESGGGLVQAGGSLRLSCAASGRIFQYNAMGWYRQATGKERELVAAITWSSGSTYYADSVKGRFTISRDNAKNTVYLQMNSLKPEDTAVYYCNTVRVLYYDRQFLFRGSRFGYWGQGTQVTVSS", "high polyreactivity"],
  ["QVQLVESGGGIVQAGGSLRLSCAASGSIFYGYAMGWYRQAPGNERELVAAISSGGRTKYADSVKGRFTISRDNAKNTVYLQMNSLKPEDTAVYYCNVSYLVYRWNFGWSMDYWGQGTQVTVSP", "low polyreactivity"],
  ["QVQLVESGGGLVQAGGSLRLSCAASGSIFFNYAMGWYRKAPGKERELVATITSGGSTYYADSVKGRFTISRDNAKNTVYLQMNSLKPEDTAVYYCAVDEYFAFDYWGQGTQVTVSS", "low polyreactivity"],
  ["QGQLVESGGGLVQAGGSLRLSCAASGSTFAYYAMGWYIPAPGKERELVAAITSRGGSTYYADSVKGRFTISRDNAKNTVYLQMNSLKPEDTAVYYCAAVTRNQGSYRYYYWGQGTQVTVSS", "high polyreactivity"],
  ["QVQLVESGGGLVQAGGSLRLSCAASGSTFYNYAMGWYRQAPGKERELVAAITSSGDRTYYADSVKGRFTISRDNAKNTVYLQMNSLKPEDTAVYYCATRRYFRYEYWGQGTQVTVSS", "low polyreactivity"],
  ["QVQLVESGGGLVQAGGSLRLSCAASGFIFYYYAMGWYRQAPGKERELVAAISSRGGITYYADSVKGRFTISRDNAKNTVYLQMNSLKPEDTAVYYCAVDFRPGYDYWGQGTQVTVSS", "low polyreactivity"],
  ["QVQLVESGGGLVQAGGSLRLICAASGRTFVYYAMGWYRQAPGKERELVAAISSSGGSTSYADSVKGRFTISRDNAKNTVYLQMNSLKPEDTAFYYCAADVSVSGYYYWGQGTQVTVSS", "high polyreactivity"],
  ["QVQLVESGGGLVQAGGSLRLSCAASGSIFHVYAMGWYRQAPGKERELVAAIDRSGGSTYYADSVKGRFTISRDNAKNTVYLQMNSLKPEDTAVYYCAKDVLGGQITDGVGNDYWGQGTQVTVSS", "low polyreactivity"],
  ["QVQLVESGGGLVQAGGSLRLSCAASGINISYYAMGWYRQAPGKEREFVAAISWSVGSTYYADSVKGRFTISRDNAKYTVYLQMNSLKPEDTAVYYCAAEDGYWPTYYYWGQGSQVTVSS", "high polyreactivity"]
]}
